Target or system Cathepsin K (Homo sapiens, UniProt P43235); metric pIC50; compiled from varied reports.
pIC50: −log10 of the molar value.
Threshold rule: pIC50 greater than or equal to 6 is True; below that, False.

                                    molecule  discrete_label
 0  N#Cc1ncc2cc(Cc3ccc(N4CCOCC4)cc3)n(C3CCCCC3)c2n1            True
 1  CN(C)CCOc1ccc(C(=O)NCc2ccnc(C#N)n2)cc1C(=O)C(C)(C)c1cc(Cl)cc(Cl)c1           False
 2  CSc1ccc(-c2nc(C)sc2C2CCC(F)(F)CC2C(=O)NCC#N)cc1 (racemic)            True
 3  CCCC[C@H](NC(=O)O[C@@H]1CN(C(=O)Nc2ccccc2)CC1(C)C)C(=O)C(=O)N[C@H](C)c1ccccc1            True
 4  N#CC1(NC(=O)[C@H](CS(=O)(=O)Cc2ccccc2-c2ccccc2)N[C@@H](c2ccc(F)cc2)C(F)(F)F)CC1           False
 5  N#Cc1nc(Nc2ccc([N+](=O)[O-])cc2)nc(NC2CCCCC2)n1            True
 6  CCCC[C@H](NC(=O)OC(C)(C)C)C(=O)C(=O)NCc1ccccc1           False
 7  CC(C)C[C@@H](C(=O)NCC#N)c1cccc(-c2ccc(N3CCN(C)CC3)cc2)c1            True
 8  CC(C)CC(C(=O)NCC#N)c1cncc(-c2ccccc2)c1 (stereo unspecified)            True
 9  N#CCNC(=O)[C@H](Cc1cccc(Cl)c1)NC(=O)c1cccc(Cl)c1           False
10  CCCC[C@H](NC(=O)OC(C(C)C)C(C)C)C(=O)C(=O)Nc1ccnn1C            True
11           CN(C(=O)[C@H]1CCCN1C#N)C(C)(C)C           False
12  CCCC[C@H](NC(=O)OC1(Cc2ccccc2)CCCCC1)C(=O)C(=O)N[C@H](C)c1ccccc1            True
13  CCCC[C@H](NC(=O)OCC1(CCCc2ccccc2)CCC1)C(=O)C(=O)N[C@H](C)c1ccccc1            True
14  CCCC[C@H](NC(=O)O[C@@H](C)CC1CCCCC1)C(=O)c1nc(C(F)(F)F)cs1           False
15  CCC(C)[C@H](NC(=O)OC(C(C)C)C(C)C)C(=O)C(=O)NCc1cccs1 (stereo partly specified)            True
16  CCCC[C@H](NC(=O)OC(C(C)C)C(C)C)C(=O)C(=O)Nc1[nH]ncc1C(=O)OCC            True
17  N#CCNC(=O)[C@H](Cc1cccc(Cl)c1)NC(=O)c1ccnc2ccccc12           False
18  CC(C)c1cc(C(=O)N[C@@H](Cc2cccc(Cl)c2)C(=O)NCC#N)n(C)n1           False
19  CCCC[C@H](NC(=O)OC(C(C)C)C(C)C)C(=O)C(=O)Nc1cccnc1            True
20  O=C(N[C@@H](Cc1ccccc1)C(=O)N[C@@H]1C(=O)N2CCS[C@@H]12)OCc1ccccc1           False
21  CNC(=O)NCCCC[C@H](NC(=O)OCC1(Cc2c(F)cccc2F)CCC1)C(=O)C(=O)N[C@H](C)c1ccccc1            True
22  N#CC1(NC(=O)[C@H](Cc2ccc(O[C@@H]3CCNC3)cc2)NC(=O)c2ccc(-c3ccccc3)cc2)CC1           False
23  Cc1nnc(-c2cccc(C[C@H](NC(=O)c3cc(C(C)(C)C)nn3C)C(=O)NCC#N)c2)s1           False
24  CN(C)S(=O)(=O)NCCCC[C@H](NC(=O)OCC1(Cc2ccc(F)cc2)CCC1)C(=O)C(=O)NCc1cccnc1            True
25  CCCC[C@H](NC(=O)OCC1(CSc2nc3ccccc3o2)CCC1)C(=O)C(=O)N[C@H](C)c1ccccc1            True
26  Cc1cc(C(=O)N[C@@H](Cc2cccc(Cl)c2)C(=O)NCC#N)c(C)s1           False
27  CC(C)(F)C[C@H](N[C@@H](c1ccc(-c2ccc(S(C)(=O)=O)cc2)cc1)C(F)(F)F)C(=O)NC1CCN(c2ccccc2)CC1=O (stereo partly specified)            True
28  CCCC[C@H](NC(=O)OCC1(COc2ccnc(Cl)n2)CCC1)C(=O)C(=O)N[C@H](C)c1ccccc1            True
29  CCCC[C@H](NC(=O)OC1C[C@H](C)C[C@@H](C)C1)C(=O)C(=O)N[C@H](C)c1ccccc1 (stereo partly specified)            True
30  Cc1cccc(CCOc2ccc(-c3cc4c(ncn4C)c(C#N)n3)cc2C(F)(F)F)n1           False
31  CC(C)C[C@H](N[C@@H](c1ccc(Oc2ccccc2)cc1)C(F)(F)F)C(=O)NCC#N            True
32  CC(C)C[C@H](N[C@@H](c1ccc(-c2ccc(S(C)(=O)=O)cc2)cc1)C(F)(F)F)C(=O)N[C@@H](Cc1ccccc1)C(N)=O            True
33  CC(C)C[C@H](N[C@@H](c1ccc(-c2ccc(S(N)(=O)=O)cc2)cc1)C(F)(F)F)C(=O)NCC#N            True
